# SYSTEM_TESTED: Serotoninergic 5-HT2A (Homo sapiens, UniProt P28223)
# Sequence (P28223 whole entry): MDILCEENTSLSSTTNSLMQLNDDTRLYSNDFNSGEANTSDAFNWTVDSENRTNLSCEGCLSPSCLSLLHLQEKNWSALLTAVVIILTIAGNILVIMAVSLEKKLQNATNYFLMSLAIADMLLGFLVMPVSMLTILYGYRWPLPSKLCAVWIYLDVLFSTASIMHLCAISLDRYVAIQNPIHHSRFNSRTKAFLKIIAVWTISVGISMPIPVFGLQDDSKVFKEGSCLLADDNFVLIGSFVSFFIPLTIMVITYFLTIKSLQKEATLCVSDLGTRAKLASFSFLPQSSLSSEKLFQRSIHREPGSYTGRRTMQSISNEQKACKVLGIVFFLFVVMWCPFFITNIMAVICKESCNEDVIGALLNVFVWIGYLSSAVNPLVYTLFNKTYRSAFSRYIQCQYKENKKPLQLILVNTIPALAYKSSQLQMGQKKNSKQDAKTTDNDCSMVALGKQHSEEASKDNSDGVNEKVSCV
# PROTOCOL: competitive radioligand binding, Serotoninergic 5-HT2A
# ASSAY_CONTEXT: compound concentration of 1 μM
Counter-ions that a name gives are not always drawn.
MEASURED_QUANTITY: radio-labelled ligand displacement, Serotoninergic 5-HT2A (%)
Just the number in %, nothing appended.

Recorded radio-labelled ligand displacement, Serotoninergic 5-HT2A, per entry:
>  <MOLECULE>
Cc1csc2c1c1c(n2CCCc2ccccc2)CCN(C)C1 [3.12(1)•HCl]

>  <RESULT_UNIT>
%

>  <NUMERIC_VALUE>
99

$$$$
>  <MOLECULE>
Cc1ccc(C=CCn2c3c(c4cc(C)sc42)CN(C)CC3)cc1 [3.11(2)•HCl]

>  <RESULT_UNIT>
%

>  <NUMERIC_VALUE>
93

$$$$
>  <MOLECULE>
CN1CCc2c(c3cc(Cl)sc3n2CCCc2cccc(F)c2)C1 [3.12(6)•HCl]

>  <RESULT_UNIT>
%

>  <NUMERIC_VALUE>
97

$$$$
>  <MOLECULE>
Cc1cc2c3c(n(CCc4ccc(Cl)cc4)c2s1)C(C)CN(C)C3 (stereo not drawn) [3.6(4)•HCl]

>  <RESULT_UNIT>
%

>  <NUMERIC_VALUE>
97

$$$$
>  <MOLECULE>
Cc1cc2c3c(n(CC(O)c4ccccc4)c2s1)CCN(C)C3.Cl (stereo not drawn) [3.7(1)•HCl]

>  <RESULT_UNIT>
%

>  <NUMERIC_VALUE>
97

$$$$

Qu. Report value only: radio-labelled ligand displacement, Serotoninergic 5-HT2A, Serotoninergic 5-HT2A (Homo sapiens, UniProt P28223), Cc1ccc(CCCn2c3c(c4c(Cl)csc42)CN(C)CC3)cc1 [3.12(5)•HCl]
Ans. 97

###

# SYSTEM_TESTED: Serotoninergic 5-HT6 (Homo sapiens, UniProt P50406)
# Sequence (P50406 whole entry): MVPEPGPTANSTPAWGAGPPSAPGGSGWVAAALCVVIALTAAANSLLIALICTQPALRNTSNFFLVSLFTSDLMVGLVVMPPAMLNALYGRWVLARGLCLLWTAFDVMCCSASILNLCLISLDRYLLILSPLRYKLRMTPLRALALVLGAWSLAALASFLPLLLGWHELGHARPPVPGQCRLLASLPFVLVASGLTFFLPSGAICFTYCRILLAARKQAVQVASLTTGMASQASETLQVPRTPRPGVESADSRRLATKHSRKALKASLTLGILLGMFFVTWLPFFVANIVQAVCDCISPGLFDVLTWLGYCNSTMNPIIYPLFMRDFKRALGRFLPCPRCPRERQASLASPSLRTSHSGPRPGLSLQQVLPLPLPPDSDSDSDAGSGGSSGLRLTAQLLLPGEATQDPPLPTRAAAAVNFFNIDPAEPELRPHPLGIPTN
# PROTOCOL: competitive radioligand binding, Serotoninergic 5-HT6
# ASSAY_CONTEXT: compound concentration of 1 μM; read-out: radio-labelled ligand displacement, Serotoninergic 5-HT6
Structures can show the parent of a compound that is named as a salt.
Listed here: items and their measured inhibition at 1 µM.
Please answer in the form of a number followed by its unit of measurement.

Recorded inhibition at 1 µM, per entry:
>  <COMPOUND>
Cc1cc2c(s1)c1c(n2-c2cccc(F)c2)CCN(C)C1 [2.4(3)•HCl]

>  <MEASURED_QUANTITY>
inhibition at 1 µM

>  <RESULT>
26%

$$$$
>  <COMPOUND>
Cc1cc2c(s1)c1c(n2Cc2ccccc2)CCN(C)C1.Cl [2.5(1)•HCl]

>  <MEASURED_QUANTITY>
inhibition at 1 µM

>  <RESULT>
55%

$$$$

Pending compound:
Qu. Quick one: give measured inhibition at 1 µM for Cc1cc2c3c(n(Cc4ccccc4)c2s1)CCN(C)C3.Cl [3.5(1)•HCl]
Ans. 85%

###

# Test system: Serotoninergic 5-HT1B
# PROTOCOL: competitive radioligand binding, Serotoninergic 5-HT1B
# ASSAY_CONTEXT: compound concentration of 1 μM
# Procedure: Profiles of pharmacological activity of thieno-pyrrolo[3,2-c]pyridines of the general formula 1. […] The tested activity was determined by quantitative measurement of radio-labelled ligand displacement by tested compounds of the general formula 1 at their concentration of 1 μM.
Where a name gives a salt, the structure may show the parent alone.
MEASURED_QUANTITY: radio-labelled ligand displacement, Serotoninergic 5-HT1B (%)
Just the number in %, nothing appended.

Recorded radio-labelled ligand displacement, Serotoninergic 5-HT1B, per entry:
>  <MOLECULE>
Cc1cc2c3c(n(CCc4ccc(Cl)cc4)c2s1)C(C)CN(C)C3 (stereo not shown) [3.6(4)•HCl]

>  <NUMERIC_VALUE>
41

$$$$
>  <MOLECULE>
Cc1ccc(CCCn2c3c(c4scc(Cl)c42)CN(C)CC3)cn1 [2.12(5)•HCl]

>  <NUMERIC_VALUE>
62

$$$$
>  <MOLECULE>
Cc1cc2c3c(n(CC(O)c4ccccc4)c2s1)CCN(C)C3.Cl (stereo not shown) [3.7(1)•HCl]

>  <NUMERIC_VALUE>
30

$$$$
>  <MOLECULE>
Cc1ccc(CCCn2c3c(c4c(Cl)csc42)CN(C)CC3)cc1 [3.12(5)•HCl]

>  <NUMERIC_VALUE>
30

$$$$
>  <MOLECULE>
Cc1cc2c3c(n(Cc4ccccc4)c2s1)CC1CCC3N1C (stereo not shown) [3.13(1)•HCl]

>  <NUMERIC_VALUE>
20

$$$$

Qu. Quick one: give measured radio-labelled ligand displacement, Serotoninergic 5-HT1B for Cc1csc2c1c1c(n2CCCc2ccccc2)CCN(C)C1 [3.12(1)•HCl]
Ans. 54

Qu. Quick one: give measured radio-labelled ligand displacement, Serotoninergic 5-HT1B for Cc1cc2c3c(n(CCc4ccccc4)c2s1)CCN(C)C3.Cl [3.6(1)•HCl]
Ans. 47

###

Listed here: items and their measured radio-labelled ligand displacement, Adrenergic α1B.
# Test system: Adrenergic α1B
# PROTOCOL: competitive radioligand binding, Adrenergic α1B
# ASSAY_CONTEXT: compound concentration of 1 μM
Just the number in %, nothing appended.

>  <COMPOUND>
Cc1cc2c3c(n(CCc4ccccc4)c2s1)CCN(C)C3.Cl [3.6(1)•HCl]

>  <NUMERIC_VALUE>
99

$$$$

Pending compound:
Qu. Quick one: give measured radio-labelled ligand displacement, Adrenergic α1B for Cc1cc2c(s1)c1c(n2Cc2ccccc2)CCN(C)C1.Cl [2.5(1)•HCl]
Ans. 10

###

# System: Adrenergic α1A
# PROTOCOL: competitive radioligand binding, Adrenergic α1A
# ASSAY_CONTEXT: compound concentration of 1 μM
# Description: Profiles of pharmacological activity of thieno-pyrrolo[3,2-c]pyridines of the general formula 1. […] The tested activity was determined by quantitative measurement of radio-labelled ligand displacement by tested compounds of the general formula 1 at their concentration of 1 μM.
Where a name gives a salt, the structure may show the parent alone.
Returns one of 1 or 0; 1 when radio-labelled ligand displacement, Adrenergic α1A is >= 80%.

Examples from the recorded data:
>  <COMPOUND>
Cc1cc2c3c(n(CCc4ccccc4)c2s1)CCN(C)C3.Cl [3.6(1)•HCl]

>  <ASSIGNED_CLASS>
1

$$$$
>  <COMPOUND>
CN1CCc2c(c3cc(Cl)sc3n2CCCc2cccc(F)c2)C1 [3.12(6)•HCl]

>  <ASSIGNED_CLASS>
1

$$$$
>  <COMPOUND>
Cc1cc2c3c(n(CCc4ccc(Cl)cc4)c2s1)C(C)CN(C)C3 (centres unmarked) [3.6(4)•HCl]

>  <ASSIGNED_CLASS>
1

$$$$
>  <COMPOUND>
Cc1csc2c1c1c(n2CCCc2ccccc2)CCN(C)C1 [3.12(1)•HCl]

>  <ASSIGNED_CLASS>
1

$$$$
>  <COMPOUND>
Cc1ccc(CCCn2c3c(c4scc(Cl)c42)CN(C)CC3)cn1 [2.12(5)•HCl]

>  <ASSIGNED_CLASS>
1

$$$$
>  <COMPOUND>
Cc1cc2c3c(n(Cc4ccccc4)c2s1)CC1CCC3N1C (centres unmarked) [3.13(1)•HCl]

>  <ASSIGNED_CLASS>
0

$$$$

Qu. Textbook exercise: given the entry Cc1ccc(C=CCn2c3c(c4cc(C)sc42)CN(C)CC3)cc1 [3.11(2)•HCl] , state whether its radio-labelled ligand displacement, Adrenergic α1A is greater than or equal to 80%.
Ans. 0

###

# Test system: Therapeutic targets (Adrenergic, Dopaminergic, Histaminergic, Serotoninergic)
# PROTOCOL: Profiles of pharmacological activity in competitive radioligand binding (whole panel)
# ASSAY_CONTEXT: 1 μM, grades not defined
Where a name gives a salt, the structure may show the parent alone.
MEASURED_QUANTITY: grade of the activity profile (poor / satisfactory / good)

>  <COMPOUND>
Cc1ccc(C=CCn2c3c(c4cc(C)sc42)CN(C)CC3)cc1 [3.11(2)•HCl]

>  <RESULT>
satisfactory

$$$$
>  <COMPOUND>
Cc1ccc(CCCn2c3c(c4scc(Cl)c42)CN(C)CC3)cn1 [2.12(5)•HCl]

>  <RESULT>
good

$$$$
>  <COMPOUND>
CC1Cc2c(c3sc(Cl)cc3n2C#Cc2cccc(F)c2)C(C)N1C (stereo not shown) [2.10(3)•HCl]

>  <RESULT>
poor

$$$$
>  <COMPOUND>
Cc1cc2c3c(n(Cc4ccccc4)c2s1)CC1CCC3N1C (stereo not shown) [3.13(1)•HCl]

>  <RESULT>
satisfactory

$$$$

###

Listed here: items and their measured radio-labelled ligand displacement, Serotoninergic 5-HT1B.
# System: Serotoninergic 5-HT1B
# PROTOCOL: competitive radioligand binding, Serotoninergic 5-HT1B
# ASSAY_CONTEXT: compound concentration of 1 μM
Counter-ions that a name gives are not always drawn.
Just the number in %, nothing appended.

Recorded radio-labelled ligand displacement, Serotoninergic 5-HT1B, per entry:
>  <COMPOUND>
Cc1cc2c(s1)c1c(n2Cc2ccccc2)CCN(C)C1.Cl [2.5(1)•HCl]

>  <NUMERIC_VALUE>
6

$$$$
>  <COMPOUND>
Cc1cc2c3c(n(Cc4ccccc4)c2s1)CCN(C)C3.Cl [3.5(1)•HCl]

>  <NUMERIC_VALUE>
10

$$$$

Pending compound:
Qu. Quick one: give measured radio-labelled ligand displacement, Serotoninergic 5-HT1B for Cc1ccc(C=CCn2c3c(c4cc(C)sc42)CN(C)CC3)cc1 [3.11(2)•HCl]
Ans. 39
